Reference for the values: patent US20180338980A1

- Target of assay: P2X4 (Homo sapiens)
- Sequence (Q99571 1-388): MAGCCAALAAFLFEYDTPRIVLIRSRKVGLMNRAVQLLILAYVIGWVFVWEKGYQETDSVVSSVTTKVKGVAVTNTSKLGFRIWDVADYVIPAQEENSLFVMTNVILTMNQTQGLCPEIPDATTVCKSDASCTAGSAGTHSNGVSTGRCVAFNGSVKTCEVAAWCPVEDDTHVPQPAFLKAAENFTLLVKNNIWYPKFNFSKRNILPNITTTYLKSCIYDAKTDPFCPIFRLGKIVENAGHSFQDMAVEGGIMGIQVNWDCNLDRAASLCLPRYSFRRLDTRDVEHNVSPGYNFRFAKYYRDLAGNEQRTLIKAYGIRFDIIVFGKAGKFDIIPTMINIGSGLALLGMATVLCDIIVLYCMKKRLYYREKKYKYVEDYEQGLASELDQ
- Assay: Assay B: human P2X4 receptor cell line, mitochondrial photina luminescence (agonist Bz-ATP at EC50)
- Type: cell-based
- Parameters: host or cells: HEK 293 (recombinant, constitutively expressing; with mitochondrial photina in Assay B)
- Reported conditions: HEK human P2X4 cell line, photina luminescence, agonist Bz-ATP at EC50, average; read-out: human P2X4 Assay B avg Efficacy
Measured endpoint: Emax (%)
The answer is to be given in %; state only the numeric part.

Observe how each entry below is paired with its result.
Smiles repr: NS(=O)(=O)c1cc(NC(=O)Cc2ccccc2)ccc1Oc1cccc(C(F)(F)F)c1
Measured endpoint: Emax
Result number: 71

Smiles repr: NS(=O)(=O)c1cc(NC(=O)Cc2cccnc2)ccc1Oc1cccc(Cl)c1
Measured endpoint: Emax
Result number: 63

Smiles repr: COc1cccc(COc2ccc(NC(=O)Cc3ccccc3Cl)cc2S(N)(=O)=O)c1
Measured endpoint: Emax
Result number: 67

Smiles repr: Cc1ccc(Cl)c(CC(=O)Nc2ccc(Oc3cccc(Cl)c3)c(S(N)(=O)=O)c2)c1F
Measured endpoint: Emax
Result number: 62

Smiles repr: NS(=O)(=O)c1cc(NC(=O)Cc2ccccc2Cl)ccc1Oc1ccccn1
Measured endpoint: Emax
Result number: 71

Switching to the query record.
## Input Recorded Emax for NS(=O)(=O)c1cc(NC(=O)Cc2ccccc2Cl)ccc1OCc1ccccn1 , please?
## Output 79
